Reference source: the NIST ThermoML archive (doi:10.1021/je0500375)

procedure summary: activity coefficient (dimensionless); of the first substance listed, at infinite dilution; xn = mol fraction of the nth substance listed
test conditions: 328.15 K; 101.33 kPa; Liquid; Chromatography; x1 = 0
measurement type: activity coefficient
Would you mind answering with just the numeric figure?

Could you share which activity coefficient value was measured for CCCCCCC [heptane] + CCCCCCCCOS(=O)(=O)[O-].CCCCn1cc[n+](C)c1 ? 9

And C#CCCCCCC [1-octyne] + CCCCCCCCOS(=O)(=O)[O-].CCCCn1cc[n+](C)c1 ? 3.65

And C=CCCCCCC [oct-1-ene] + CCCCCCCCOS(=O)(=O)[O-].CCCCn1cc[n+](C)c1 ? 7.88

And C1CCCC1 [cyclopentane] + CCCCCCCCOS(=O)(=O)[O-].CCCCn1cc[n+](C)c1 ? 4.39

And CCCCCC [hexane] + CCCCCCCCOS(=O)(=O)[O-].CCCCn1cc[n+](C)c1 ? 7.98

And C#CCCCC [1-hexyne] + CCCCCCCCOS(=O)(=O)[O-].CCCCn1cc[n+](C)c1 ? 2.56

And C=CCCCC [hex-1-ene] + CCCCCCCCOS(=O)(=O)[O-].CCCCn1cc[n+](C)c1 ? 6.13

And CCCCCCCC [octane] + CCCCCCCCOS(=O)(=O)[O-].CCCCn1cc[n+](C)c1 ? 10.3

And ClC(Cl)(Cl)Cl [tetrachloromethane] + CCCCCCCCOS(=O)(=O)[O-].CCCCn1cc[n+](C)c1 ? 1.85

And Cc1ccccc1 [toluene] + CCCCCCCCOS(=O)(=O)[O-].CCCCn1cc[n+](C)c1 ? 2.08

And CO [methanol] + CCCCCCCCOS(=O)(=O)[O-].CCCCn1cc[n+](C)c1 ? 0.36

And C1CCCCCC1 [cycloheptane] + CCCCCCCCOS(=O)(=O)[O-].CCCCn1cc[n+](C)c1 ? 5.68

And c1ccccc1 [benzene] + CCCCCCCCOS(=O)(=O)[O-].CCCCn1cc[n+](C)c1 ? 1.45

And C1CCCCC1 [cyclohexane] + CCCCCCCCOS(=O)(=O)[O-].CCCCn1cc[n+](C)c1 ? 5.17

And C#CCCCCC [1-heptyne] + CCCCCCCCOS(=O)(=O)[O-].CCCCn1cc[n+](C)c1 ? 3.08
